Reported values of EC50 for individual entries
# Study target: MC4R (melanocortin-4 receptor) (Homo sapiens, UniProt P32245)
# Construct: expressed in transfected cells
# Sequence (P32245 whole entry, species assumed): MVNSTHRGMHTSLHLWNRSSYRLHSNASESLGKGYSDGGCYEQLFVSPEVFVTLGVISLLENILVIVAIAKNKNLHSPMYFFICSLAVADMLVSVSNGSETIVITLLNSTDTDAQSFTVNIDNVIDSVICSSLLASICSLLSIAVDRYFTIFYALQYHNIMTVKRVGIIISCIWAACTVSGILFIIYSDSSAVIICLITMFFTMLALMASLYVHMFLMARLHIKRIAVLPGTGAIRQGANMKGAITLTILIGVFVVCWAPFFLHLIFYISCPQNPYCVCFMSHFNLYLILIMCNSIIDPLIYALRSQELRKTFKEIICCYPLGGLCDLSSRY
# Assay info: Luciferase assay (CRE-LUC, HEK MC4R-Luc cells)
# Assay type: cell-based
# Experimental setup: 5 h incubation, concentration inducing 50% of each agonist's own maximum luminescence
Counter-ions that a name gives are not always drawn.
Answer in nM, number only, no unit symbol.

Answer with the recorded EC50 for the molecule listed here: CC(C)C(=O)N(C1CCC(C)(C)CC1)[C@H]1C[C@@H](C(=O)N2CCOCC2)N(C(=O)[C@@H]2CN(C(C)(C)C)C[C@H]2c2ccc(Cl)cc2)C1 [Example 5, hydrochloride] 3.82

Answer with the recorded EC50 for the molecule listed here: CC1(C)CCC(N(C(=O)C(C)(C)C)[C@H]2C[C@@H](C(=O)N3CCOCC3)N(C(=O)[C@@H]3CN(C(C)(C)C)C[C@H]3c3ccc(Cl)cc3)C2)CC1 [Example 6, hydrochloride] 4.04

Answer with the recorded EC50 for the molecule listed here: CC(C)(C)C(=O)N([C@H]1C[C@@H](C(=O)N2CCOCC2)N(C(=O)[C@@H]2CN(C(C)(C)C)C[C@H]2c2ccc(Cl)cc2F)C1)[C@H]1CC[C@@H](C)CC1 [Example 4, hydrochloride] 0.555

----------
# Study target: MC4R (Homo sapiens)
# Assay info: cAMP assay (cAMP Hunter Gs-coupled CHO-K1 cell line)
# Format: cell-based
# Set-up: expressed in transfected cells; host or cells: CHO-K1 (cAMP Hunter Gs-coupled cell line)
# Experimental setup: CHO-K1 cells overexpressing MC4R, 37° C. for 30 minutes
# Excerpt: The melanocortin receptor is a type of G-protein coupled receptor (GPCR), and the main role of G-protein is to activate secondary transducers to regulate cellular responses to many physiological stimuli through signal transduction. MC4R is a Gs-coupled receptor, and it is known that if MC4R interacts with an agonist, adenylate cyclase (AC) is activated to increase the concentration of cyclic AMP (cAMP), which is one of the secondary transducers in cells. […]
# Sequence (P32245 whole entry, species assumed): as above
Where a name gives a salt, the structure may show the parent alone.
Parameter measured: EC50 (nM)
Answer in nM, number only, no unit symbol.

Please review the entries below; each comes with its answer.
>  <Molecule>
CC(C)C(=O)N([C@H]1C[C@@H](C(=O)N2CCOCC2)N(C(=O)[C@@H]2CN(C(C)(C)C)C[C@H]2c2ccc(Cl)cc2F)C1)[C@H]1CC[C@@H](C)CC1 [Example 3, hydrochloride]

>  <Study target>
MC4R (Homo sapiens)

>  <EC50, nM>
49.6

$$$$
>  <Molecule>
CC(C)(C)C(=O)N([C@H]1C[C@@H](C(=O)N2CCOCC2)N(C(=O)[C@@H]2CN(C(C)(C)C)C[C@H]2c2ccc(Cl)cc2F)C1)[C@H]1CC[C@@H](C)CC1 [Example 4, hydrochloride]

>  <Study target>
MC4R (Homo sapiens)

>  <EC50, nM>
26.2

$$$$
>  <Molecule>
CC1(C)CCC(N(C(=O)C(C)(C)C)[C@H]2C[C@@H](C(=O)N3CCOCC3)N(C(=O)[C@@H]3CN(C(C)(C)C)C[C@H]3c3ccc(Cl)cc3)C2)CC1 [Example 6, hydrochloride]

>  <Study target>
MC4R (Homo sapiens)

>  <EC50, nM>
51.4

$$$$

Answer with the recorded EC50 for the molecule listed here: CC(C)(C)C(=O)N([C@H]1C[C@@H](C(=O)N2CCOCC2)N(C(=O)[C@@H]2CN(C(C)(C)C)C[C@H]2c2ccc(F)cc2F)C1)[C@H]1CC[C@@H](C)CC1 [Example 1, hydrochloride] 58.9

Answer with the recorded EC50 for the molecule listed here: CC(C)C(=O)N([C@H]1C[C@@H](C(=O)N2CCOCC2)N(C(=O)[C@@H]2CN(C(C)(C)C)C[C@H]2c2ccc(F)cc2F)C1)[C@H]1CC[C@@H](C)CC1 [Example 2, hydrochloride] 59.6

----------
Reported values of EC50 for individual entries
# Study target: MC4R (Homo sapiens)
# Assay info: β-arrestin assay (Pathhunter eXpress β-arrestin U2OS cell line)
# Assay type: cell-based
# Design: expressed in transfected cells; host or cells: U2OS (Pathhunter eXpress β-arrestin cell line)
# Experimental setup: U2OS cells, PK-tagged MC4R and EA-tagged β-arrestin, 37° C. for 90 minutes
# Sequence (P32245 whole entry, species assumed): as above
# Sequence (P32121 whole entry partner, species assumed): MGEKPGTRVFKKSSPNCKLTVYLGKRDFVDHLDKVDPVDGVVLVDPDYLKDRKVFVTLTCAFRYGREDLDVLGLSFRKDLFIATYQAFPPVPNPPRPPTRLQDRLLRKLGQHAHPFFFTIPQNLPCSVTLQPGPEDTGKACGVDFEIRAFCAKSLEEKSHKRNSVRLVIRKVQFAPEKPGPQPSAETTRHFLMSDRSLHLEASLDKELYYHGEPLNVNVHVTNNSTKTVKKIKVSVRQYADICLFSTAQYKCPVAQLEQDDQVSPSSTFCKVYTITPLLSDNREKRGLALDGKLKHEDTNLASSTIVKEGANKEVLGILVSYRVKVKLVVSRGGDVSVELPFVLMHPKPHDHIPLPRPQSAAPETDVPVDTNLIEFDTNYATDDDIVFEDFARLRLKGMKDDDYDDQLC
Structures can show the parent of a compound that is named as a salt.
Answer in nM, number only, no unit symbol.

Please review the entries below; each comes with its answer.
>  <Compound>
CC(C)C(=O)N([C@H]1C[C@@H](C(=O)N2CCOCC2)N(C(=O)[C@@H]2CN(C(C)(C)C)C[C@H]2c2ccc(F)cc2F)C1)[C@H]1CC[C@@H](C)CC1 [Example 2, hydrochloride]

>  <Scale unit>
nM

>  <Experimental result>
15

$$$$
>  <Compound>
CC(C)(C)C(=O)N([C@H]1C[C@@H](C(=O)N2CCOCC2)N(C(=O)[C@@H]2CN(C(C)(C)C)C[C@H]2c2ccc(Cl)cc2F)C1)[C@H]1CC[C@@H](C)CC1 [Example 4, hydrochloride]

>  <Scale unit>
nM

>  <Experimental result>
4.2

$$$$

With MC4R (Homo sapiens) as the test system, provide measured EC50 for this compound: CC(C)(C)C(=O)N([C@H]1C[C@@H](C(=O)N2CCOCC2)N(C(=O)[C@@H]2CN(C(C)(C)C)C[C@H]2c2ccc(F)cc2F)C1)[C@H]1CC[C@@H](C)CC1 [Example 1, hydrochloride] 8.02

With MC4R (Homo sapiens) as the test system, provide measured EC50 for this compound: CC1(C)CCC(N(C(=O)C(C)(C)C)[C@H]2C[C@@H](C(=O)N3CCOCC3)N(C(=O)[C@@H]3CN(C(C)(C)C)C[C@H]3c3ccc(Cl)cc3)C2)CC1 [Example 6, hydrochloride] 13

With MC4R (Homo sapiens) as the test system, provide measured EC50 for this compound: CC(C)C(=O)N([C@H]1C[C@@H](C(=O)N2CCOCC2)N(C(=O)[C@@H]2CN(C(C)(C)C)C[C@H]2c2ccc(Cl)cc2F)C1)[C@H]1CC[C@@H](C)CC1 [Example 3, hydrochloride] 4.5

----------
# Study target: MC4R (Homo sapiens)
# Assay info: Binding affinity (125I-NDP-α-MSH displacement, membranes of HEK-293 cells expressing MC4R)
# Design: expressed in transfected cells; host or cells: HEK-293 cells, membrane preparation
# Experimental setup: Table 4-2; 0.02 nM 125I-NDP-α-MSH, 37° C. for two hours, pH 7.0
# Sequence (P32245 whole entry): as the sequence (P32245 whole entry, species assumed) above
Where a name gives a salt, the structure may show the parent alone.
Parameter measured: Ki

Please review the entries below; each comes with its answer.
>  <Molecule>
CC(=O)N(C1CCC(C)(C)CC1)[C@H]1C[C@@H](C(=O)N2CCOCC2)N(C(=O)[C@@H]2CN(C(C)(C)C)C[C@H]2c2ccc(Cl)cc2)C1 [Comparative Example 2 (A96), hydrochloride, reference compound]

>  <Ki>
530 nM

$$$$
>  <Molecule>
CC1(C)CCC(N(C(=O)C(C)(C)C)[C@H]2C[C@@H](C(=O)N3CCOCC3)N(C(=O)[C@@H]3CN(C(C)(C)C)C[C@H]3c3ccc(Cl)cc3)C2)CC1 [Example 6, hydrochloride]

>  <Ki>
32 nM

$$$$
>  <Molecule>
CC(=O)N(C1CCC(C)(C)CC1)[C@H]1C[C@@H](C(=O)N2CCOCC2)N(C(=O)[C@@H]2CN(C(C)(C)C)C[C@H]2c2ccc(F)cc2F)C1 [Comparative Example 1 (A95), hydrochloride, reference compound]

>  <Ki>
1780 nM

$$$$

Switching to the query record.
Answer with the recorded Ki for the molecule listed here: CC(C)C(=O)N([C@H]1C[C@@H](C(=O)N2CCOCC2)N(C(=O)[C@@H]2CN(C(C)(C)C)C[C@H]2c2ccc(Cl)cc2F)C1)[C@H]1CC[C@@H](C)CC1 [Example 3, hydrochloride] 86 nM

----------
# Study target: UniProtKB P32245
# Assay info: Binding affinity (125I-NDP-α-MSH displacement, membranes of HEK-293 cells expressing MC4R)
# Parameters: expressed in transfected cells; host or cells: HEK-293 cells, membrane preparation
# Experimental setup: Table 4-1; 0.02 nM 125I-NDP-α-MSH, 37° C. for two hours, pH 7.0
Structures can show the parent of a compound that is named as a salt.
Reported values of Ki for individual entries
Answer in nM, number only, no unit symbol.

Please review the entries below; each comes with its answer.
>  <Compound>
CC(C)C(=O)N([C@H]1C[C@@H](C(=O)N2CCOCC2)N(C(=O)[C@@H]2CN(C(C)(C)C)C[C@H]2c2ccc(F)cc2F)C1)[C@H]1CC[C@@H](C)CC1 [Example 2, hydrochloride]

>  <Scale unit>
nM

>  <Ki>
240

$$$$
>  <Compound>
CC(=O)N(C1CCC(C)(C)CC1)[C@H]1C[C@@H](C(=O)N2CCOCC2)N(C(=O)[C@@H]2CN(C(C)(C)C)C[C@H]2c2ccc(Cl)cc2)C1 [Comparative Example 2 (A96), hydrochloride, reference compound]

>  <Scale unit>
nM

>  <Ki>
410

$$$$

Answer with the recorded Ki for the compound listed here: CC(C)(C)C(=O)N([C@H]1C[C@@H](C(=O)N2CCOCC2)N(C(=O)[C@@H]2CN(C(C)(C)C)C[C@H]2c2ccc(Cl)cc2F)C1)[C@H]1CC[C@@H](C)CC1 [Example 4, hydrochloride] 30

Answer with the recorded Ki for the compound listed here: CC(=O)N(C1CCC(C)(C)CC1)[C@H]1C[C@@H](C(=O)N2CCOCC2)N(C(=O)[C@@H]2CN(C(C)(C)C)C[C@H]2c2ccc(F)cc2F)C1 [Comparative Example 1 (A95), hydrochloride, reference compound] 1450

Answer with the recorded Ki for the compound listed here: CC(C)(C)C(=O)N([C@H]1C[C@@H](C(=O)N2CCOCC2)N(C(=O)[C@@H]2CN(C(C)(C)C)C[C@H]2c2ccc(F)cc2F)C1)[C@H]1CC[C@@H](C)CC1 [Example 1, hydrochloride] 74
